Recorded values, source PubChem BioAssay.

Target: Muscarinic acetylcholine receptor M4 (Homo sapiens) (UniProt P08173)
Sequence (P08173 whole entry, looked up): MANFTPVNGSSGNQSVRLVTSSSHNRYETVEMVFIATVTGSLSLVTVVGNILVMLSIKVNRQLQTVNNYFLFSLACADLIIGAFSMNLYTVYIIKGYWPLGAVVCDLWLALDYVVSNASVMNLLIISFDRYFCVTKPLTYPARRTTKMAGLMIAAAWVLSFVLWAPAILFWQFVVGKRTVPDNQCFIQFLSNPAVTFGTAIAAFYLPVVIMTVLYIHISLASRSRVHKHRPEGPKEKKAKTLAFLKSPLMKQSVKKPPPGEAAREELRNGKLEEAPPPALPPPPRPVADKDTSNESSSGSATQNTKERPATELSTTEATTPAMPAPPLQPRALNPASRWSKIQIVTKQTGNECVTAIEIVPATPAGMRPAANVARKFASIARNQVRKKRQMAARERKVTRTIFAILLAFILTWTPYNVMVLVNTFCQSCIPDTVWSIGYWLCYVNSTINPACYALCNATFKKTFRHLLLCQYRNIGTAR
Test: M4-linked GIRK flux change, two-sided – cell-based, HEK293 M4/GIRK, thallium flux, BTC-AM, M4 allosteric agonist project, primary screen (AID 625);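 note: thallium influx through GIRK channels coupled to M4 in HEK293 cells with BTC-AM dye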
Conditions: at 10 µM, actives lie on both sides
Decision: fluorescence slope beneath 0.005 gives rule met; fluorescence slope meeting or exceeding 0.005 gives rule not met.

- compound: "COc1ccc(OC)c(C2C3=C(CCCC3=O)Nc3c2c(=O)n(C)c(=O)n3C)c1 (stereo not drawn)"
  class-name: "rule met"
- compound: "O=S(=O)(NCCSc1ccccc1)c1cccs1"
  class-name: "rule not met"
- compound: "Cc1ccc(C(=O)CSc2nnc(-c3cccnc3)n2N)cc1"
  class-name: "rule met"

Input line: Please check: fluorescence slope for `Clc1ccccc1OCc1nn2c(-c3ccncc3)nnc2s1` , strictly under 0.005 or not?
Output line: rule not met

Input line: Note, next up: Cc1cccc(C(=O)N2CCN(C(=O)c3cccc(C)c3)C(C)C2)c1 (stereo not drawn)
Output line: rule not met

Input line: Note, next up: `COc1ccc(-n2c(SCCC(=O)O)nnc2-c2ccncc2)cc1`
Output line: rule not met

Input line: Note, next up: `Cn1c(Cc2csc(N)n2)nnc1SCC(=O)NC1CCCCC1`
Output line: rule met

Input line: Note, next up: `O=P(Cc1nnco1)(c1ccccc1)c1ccccc1`
Output line: rule not met

Input line: Note, next up: `CC1=C(C#N)C(c2ccc3ncccc3c2)C(C#N)=C(C)N1`
Output line: rule met

Input line: Note, next up: `O=c1oc2ccccc2c(N2CCCCC2)c1CN1CCCCC1`
Output line: rule not met

Input line: Note, next up: `Cn1c(=O)oc2cc(S(=O)(=O)N3CCC(C(=O)Nc4ccc(OC(F)(F)F)cc4)CC3)ccc21`
Output line: rule not met

Input line: Note, next up: `COc1ccc(CCNS(=O)(=O)c2ccc(C(=O)NCc3ccco3)cc2)cc1OC`
Output line: rule not met

Input line: Note, next up: CCOC(=O)C1CCCN(C(=O)CNS(=O)(=O)c2ccc(Br)s2)C1 (stereo not drawn)
Output line: rule not met

Input line: Note, next up: `CC(C)c1ccc(-c2nc(N3CCCCC3)[nH]c(=O)c2C#N)cc1`
Output line: rule not met

Input line: Note, next up: `CN(C(=O)CSc1nc2c(c(=O)[nH]1)CCCC2)C1CCCCC1`
Output line: rule not met

Input line: Note, next up: `CCCn1nnnc1SCC(=O)c1ccc2c(c1)OCCO2`
Output line: rule not met
